src = ChEMBL document CHEMBL1138651

- target: M-phase inducer phosphatase 3 (Homo sapiens, UniProt P30307)
- Sequence (P30307 whole entry): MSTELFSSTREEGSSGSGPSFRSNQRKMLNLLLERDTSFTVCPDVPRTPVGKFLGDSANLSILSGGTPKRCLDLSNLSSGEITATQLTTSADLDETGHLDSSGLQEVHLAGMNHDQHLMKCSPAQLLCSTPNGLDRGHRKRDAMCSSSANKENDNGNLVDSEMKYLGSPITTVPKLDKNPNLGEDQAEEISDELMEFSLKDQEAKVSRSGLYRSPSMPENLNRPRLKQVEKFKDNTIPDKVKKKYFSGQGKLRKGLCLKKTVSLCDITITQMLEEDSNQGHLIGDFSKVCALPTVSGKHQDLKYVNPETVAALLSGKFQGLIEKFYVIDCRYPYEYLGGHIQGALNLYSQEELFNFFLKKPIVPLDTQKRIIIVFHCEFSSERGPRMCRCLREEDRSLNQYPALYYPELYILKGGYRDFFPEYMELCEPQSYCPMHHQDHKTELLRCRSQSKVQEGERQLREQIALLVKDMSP
- procedure.details: Inhibitory concentration for human cell division cycle 25 degree C phosphatase
Rule for this label: satisfied means IC50 is less than 6 µM; not satisfied means IC50 is at least 6 µM.

Solved entries:
COc1cc(N(C)C)cc(CNCCc2ccc([N+](=O)[O-])cc2)c1O = satisfied
CC1=CC(=O)c2ccccc2C1=O = not satisfied
CN(C)c1ccc(O)c(CNCCc2ccc([N+](=O)[O-])cc2)c1 = satisfied
COc1cc(CN(C)CCc2ccc([N+](=O)[O-])cc2)cc(N(C)C)c1O = not satisfied

Below: the item to evaluate.
Request: Regarding `CN(CCc1ccc([N+](=O)[O-])cc1)Cc1cc(N(C)C)ccc1O` , kindly confirm whether its IC50 is beneath 6 µM.
Response: satisfied
